Origin of measurements: PubChem BioAssay

test.protocol: mitochondrial membrane potential change in A549 cells, profiling panel, cell-based, JC-1 fluorescence, basal, 24 h, 100 nL (AID 1138);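 also: A549 lung adenocarcinoma cells under basal conditions with no added stimulus; test concentration not given here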
cond: higher = more signal
Reported z-score is given for each of the following compounds.
Give only the figure.

O=C1O[C@@H](c2ccccc2)[C@@H](c2ccccc2)N2[C@@H](c3ccc(OCCO)cc3)[C@]3(C(=O)Nc4ccc(C#CCCO)cc43)[C@@H](C(=O)N3CCCCCCC3)[C@H]12 | -0.287
C=C(/C(=C/C[C@H](OC(C)=O)c1ccc(OCCO)cc1)c1cnc2ccccc2c1)C(C)C | 0.414

Field request: z-score | item: COc1ccc(O[C@H]2C=C[C@@H](c3ccccc3)O[C@@H]2COC(=O)CCC(C)=NOC(C)CN2CCCCc3nc(C)c(C)cc32)cc1 (some centres not stated)
0.752

Please answer likewise for CCOC(=O)CCN1C(=O)[C@H]2[C@H]3[C@H](O)[C@H](O)CC(=NOC[C@@H](O)COCc4ccco4)[C@@H]3CC[C@H]2C1=O
0.928

Please answer likewise for C=CC[C@@H]1C=C[C@H](ON=C2c3cc(OC)ccc3O[C@H](c3cccc(OC)c3)[C@H]2O)[C@@H](CO)O1
-0.102

Please answer likewise for COC(=O)[C@]1(CO)N=C(c2ccc(OCCCO)cc2)O[C@@H]1c1ccccc1N=[N+]=[N-]
0.299

Please answer likewise for COc1ccc(COC(=O)NN=C2C[C@@H](O)[C@@H](O)[C@@H]3[C@@H]4C(=O)N(c5ccc(F)cc5F)C(=O)[C@@H]4CC[C@@H]23)cc1
-0.604

###

Test system: Sonic hedgehog protein (Shh)
test.protocol: small-molecule binders of Shh protein, primary screen, biochemical, small-molecule microarray, 635/667 nm fluorescence (AID 1151);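 also: Shh protein binding to compounds spotted on small-molecule microarray slides; score combines spot fluorescence intensity with signal-to-noise across triplicate slides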
cond: small-molecule microarray binding, 635 nm fluorescence; higher = more signal
Please mark y if the recorded composite z-score is equal to or greater than 0.6, and n if it falls below.

Cn1cccc1C(O)C1C=CC2C(=O)NC(=O)C2N1Nc1ccccn1 (stereo not given) | y
COC(=O)[C@@H]1CCCN1C(=O)[C@@H](C)CO | n

Next, consider the following molecule.
Is composite z-score for COC(=O)[C@@]1(Cc2ccc(OC)cc2)[C@H]2c3cc(C(=O)N4CCCC4)n(Cc4cc(F)c(F)c(F)c4)c3C[C@H]2CN1C(=O)c1ccccc1 at or above 0.6?
n

###

Tested on: Plasmodium falciparum Sir2 (PF13_0152, Sir2A)
test.protocol: pfSir2 binders on small-molecule microarrays, primary screen, biochemical, small-molecule microarray, 635 nm fluorescence (AID 1098);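 also: score merges spot fluorescence intensity with its signal-to-noise ratio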
cond: small-molecule microarray binding, fluorescence 635 nm; higher = more signal
experimental.readout: composite z-score
Give only the figure.

Study these solved cases before continuing.
COC(=O)[C@@]1(Cc2ccc(OC)cc2)[C@H]2c3cc(C(=O)N4CCCC4)n(Cc4cc(F)c(F)c(F)c4)c3C[C@H]2CN1C(=O)c1ccccc1 | 1.08
O=C1C2C=CC(C(O)c3ccc([N+](=O)[O-])cc3)N(Nc3ccc([N+](=O)[O-])cc3)C2C(=O)N1c1ccccc1 (stereo not drawn) | 0.867
Cc1ccc(C2CC=C(C(=O)O)CN2S(=O)(=O)c2ccc(C)cc2)cc1 (stereo not drawn) | 1.3

Could you now look at the following molecule, please?
Field request: composite z-score | item: CO[C@H]1COC(=O)[C@H](C)NC(=O)[C@@H](C)COC(=O)CC=C[C@@H]1C
1.38
